Listed next: entries and their corresponding PRNT IC50.
molecular target: F protein of hMPV B virus (human metapneumovirus subtype B); assay: cell-based or functional assay
value-kind: PRNT IC50 (µg/mL)

binder	value-kind	val
M2A05 (antibody, V domains shown, IgG) VH: QITLKESGPTLVKPTQTLTLTCTVSGFSLSANSVGVAWFRQPPGKAPEWLGVIYWDDDKRFSPSLKTRLSITKDASTSQVVLRLTNVSPLDTATYYCVRKHYDLLQWGQGAPVTVSS VL: EIVLTQSPGTLSLSPGEGATLSCRASRSVNSDYIAWYQHKPGLAPRLLIYAASTRATDIPDRFRADVSGTDFTLTIDRLEPDDFAVYYCQQYGSAVWTFGQGTRVEVK	PRNT IC50	0.0657
M1A04 (antibody, V domains shown, IgG) VH: EVQLVESGGGLVRPGGSLRLSCAASGFNVRNYYMSWVRQAPGKGLEWISVIYGGGTTFYAGSVKGRFTISRDDSKSTLFLQMNSLRADDTAVYYCARDPGTVMSTENLQGMDVWGQGTTVTVSS VL: DIQMTQSPSSLSASVGDRVTITCRASQTIRSYLNWYQQKPGKAPNLLIYAATSLQSGVPSRFSGSGSGTDFTLTISSLQPEDSATYYCQQSFSTLYSFGQGTRLEIK	PRNT IC50	0.128
M8C10 (antibody, V domains shown) VH: QVQLVESGGGVVQPGRSLRLSCAASGFTFTTYTMHWVRQAPGKGLEWVALISSDGNNKYYADSVKGRFTISRDNSKNTLYLQMSSLRAEDTAVYYCARGYYSGGDAFDVWGQGTMVTVSS VL: DIQMTQSPSTLSASVGDRVTITCRASQTITIWLAWYQQKPGKAPKLLIYDAVSLESGVPSRFRGSGSGTDFTLTISSLQPDDFATYYCQQYNNYPYTFGQGTKLEIKR	PRNT IC50	0.66

Cited source for all entries: patent US20240327502A1
